B1: Azoarcus group I ribozyme (parent)
chain: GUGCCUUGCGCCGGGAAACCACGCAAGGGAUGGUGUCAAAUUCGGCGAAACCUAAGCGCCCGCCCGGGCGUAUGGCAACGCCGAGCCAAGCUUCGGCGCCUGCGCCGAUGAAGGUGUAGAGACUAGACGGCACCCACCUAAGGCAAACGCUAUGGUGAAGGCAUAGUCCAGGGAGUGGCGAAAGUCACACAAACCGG

- Variants of: B1
- TEST NAME: reverse-splicing fitness (ratio to wild type); higher = more active; in vitro selection; Mg2+ level not given
Would you please tag the item criterion met when its reverse-splicing fitness is 0.01 or above, and criterion not met when it is below?

MUTATION NAME	QUALITATIVE LABEL
C82U A111U A120C A145C C169U U176A	criterion met
C82A A111C A120C A145U C150G C169A U176A	criterion not met
C82U A111G A120U A145C C150A U176C	criterion not met
C82G A120U A145C C150A C169G	criterion not met
C82U A111C C169A U176A	criterion met
C82A A111U A120U A145U C169G U176A	criterion not met
A120G C150U C169G	criterion met
C82G A111C A120G A145U C150G U176G	criterion not met
C82A A111U A120G C150U U176A	criterion met
C82A A111G A120U A145G C150A C169G U176G	criterion not met
C82U A145C C150G C169U	criterion not met
C82U A111U A145U C150U C169G U176G	criterion not met
A111C A145C C150G C169U U176C	criterion met
A111U C150U C169A	criterion met
C82U A111U A120C A145G C150A U176A	criterion met
A111G A120U C150G C169A U176A	criterion not met
C82A A111C C150G C169U U176C	criterion met
A111C A120G A145G C150A U176C	criterion met
C82U A120G A145U C150U C169A U176C	criterion not met
C82G A111C A120C A145U C150G C169G U176A	criterion not met
A111G A145G C150A C169A	criterion met
C82U A120U C150G C169G U176A	criterion not met
A111G A120C A145U C150U U176G	criterion met
A111G A120U A145G C150U C169G U176G	criterion not met
C82G A120C C150U C169G U176A	criterion met
C82G A120G C150U C169U U176G	criterion not met
C82U A111G A145U C150U U176C	criterion met
C82A A111C A120C A145U C150U C169A U176C	criterion met
A111U A120U A145U C169U U176C	criterion met
C82G A111U A120G A145C C150U C169G U176C	criterion met
A111C A120G A145C C150U U176C	criterion met
C150A C169A	criterion met
C82G A111U A120C A145G C150U U176C	criterion met
A111C A120G A145G C150U C169U U176C	criterion met
C82U A120C A145U C150G C169G U176G	criterion not met
C82A A120U U176C	criterion met
C82G A120G A145C C169A U176A	criterion met
C82U A120U A145C C150G C169U U176A	criterion not met
A120C A145U C150G C169G U176C	criterion not met
C82G A145G C150U C169G U176A	criterion met
C82A A120U C169A U176G	criterion not met
C82G A111U A145G C150A C169U U176A	criterion met
